Recorded IC50 for the following molecules
- target-desc: EGFR-Del19/T790M/C797S kinase (Homo sapiens, UniProt P00533, C797S/T790M, form not given)
- Sequence (P00533 25-1210 T790M/C797S limits assumed, form open): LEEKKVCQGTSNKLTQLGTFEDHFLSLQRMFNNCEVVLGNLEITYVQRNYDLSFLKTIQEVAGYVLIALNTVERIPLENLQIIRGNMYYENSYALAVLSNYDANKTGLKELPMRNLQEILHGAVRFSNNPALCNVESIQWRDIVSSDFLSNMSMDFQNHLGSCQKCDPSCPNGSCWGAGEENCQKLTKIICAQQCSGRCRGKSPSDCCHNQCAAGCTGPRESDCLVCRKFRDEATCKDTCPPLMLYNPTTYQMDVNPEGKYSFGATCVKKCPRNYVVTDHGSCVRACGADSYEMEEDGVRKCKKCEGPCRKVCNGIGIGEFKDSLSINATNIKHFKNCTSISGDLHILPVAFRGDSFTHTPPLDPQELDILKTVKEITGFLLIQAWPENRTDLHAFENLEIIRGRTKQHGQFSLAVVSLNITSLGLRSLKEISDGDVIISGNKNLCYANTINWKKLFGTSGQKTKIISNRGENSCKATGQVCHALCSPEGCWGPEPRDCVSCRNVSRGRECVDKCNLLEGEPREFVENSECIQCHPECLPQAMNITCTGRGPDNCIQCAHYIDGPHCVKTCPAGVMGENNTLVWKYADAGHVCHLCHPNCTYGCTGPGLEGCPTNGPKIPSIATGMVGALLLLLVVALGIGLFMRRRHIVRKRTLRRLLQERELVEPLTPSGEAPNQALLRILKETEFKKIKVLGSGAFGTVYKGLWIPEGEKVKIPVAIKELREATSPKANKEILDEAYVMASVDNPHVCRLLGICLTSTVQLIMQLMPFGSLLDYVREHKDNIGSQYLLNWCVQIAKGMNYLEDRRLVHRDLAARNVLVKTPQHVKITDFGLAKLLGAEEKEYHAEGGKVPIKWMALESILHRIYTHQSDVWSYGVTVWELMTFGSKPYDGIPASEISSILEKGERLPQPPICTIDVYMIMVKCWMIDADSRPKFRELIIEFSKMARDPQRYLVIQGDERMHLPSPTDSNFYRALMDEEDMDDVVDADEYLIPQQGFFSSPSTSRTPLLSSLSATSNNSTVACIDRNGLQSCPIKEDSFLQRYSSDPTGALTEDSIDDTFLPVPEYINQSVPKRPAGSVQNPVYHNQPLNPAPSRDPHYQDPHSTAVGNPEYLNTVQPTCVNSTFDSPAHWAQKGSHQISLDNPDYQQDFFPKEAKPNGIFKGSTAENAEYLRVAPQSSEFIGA
- experiment: In-vitro enzyme experiment 2 (HTRF kinase assay), EGFR Del19 T790M C797S
- Format: biochemical
- experimental-conditions: read-out: enzyme inhibition IC50 (nM) EGFR-Del19/T790M/C797S
measured-metric: IC50

{"molecule": "CO[C@H]1CC[C@H](Nc2nc(Nc3ccc(N4CCN(C)CC4)cc3)nc3[nH]cc(C(=O)c4ccc(F)cc4)c23)CC1 [Example 73]", "measured-metric": "IC50", "reading": "100 to 600 nM"}
{"molecule": "CN1CCN(c2ccc(Nc3nc(NC4(CO)CCCC4)c4c(C(=O)c5ccc(F)cc5)c[nH]c4n3)cc2)CC1 [Example 11]", "measured-metric": "IC50", "reading": "100 to 600 nM"}
{"molecule": "CN1CCN(c2ccc(Nc3nc(NC45CC6CC(C4)C(O)C(C6)C5)c4c(C(=O)c5ccc(F)cc5)c[nH]c4n3)cc2)CC1 (stereo not drawn) [Example 71]", "measured-metric": "IC50", "reading": "10 to 100 nM"}
{"molecule": "COc1cc(N2CCN(C)CC2)ccc1Nc1nc(N[C@H]2CC[C@H](CO)CC2)c2c(C(=O)c3ccc(F)cc3)c[nH]c2n1 [Example 80]", "measured-metric": "IC50", "reading": "100 to 600 nM"}
{"molecule": "COc1nn(C)cc1Nc1nc(N[C@H]2CC[C@@H](CO)CC2)c2c(C(=O)c3ccc(F)cc3)c[nH]c2n1 [Example 116]", "measured-metric": "IC50", "reading": "10 to 100 nM"}
{"molecule": "Cn1cc(Nc2nc(N[C@H]3CC[C@H](CO)CC3)c3c(C(=O)c4ccc(F)cc4)c[nH]c3n2)cn1 [Example 110]", "measured-metric": "IC50", "reading": "10 to 100 nM"}

###

- target-desc: EGFR-Del19/T790M/C797S kinase (Homo sapiens, UniProt P00533, C797S/T790M, form not given)
- experiment: In-vitro enzyme experiment 2 (HTRF kinase assay), EGFR Del19 T790M C797S
- Format: biochemical
- experimental-conditions: read-out: enzyme inhibition IC50 (nM) EGFR-Del19/T790M/C797S
- Method: The specific experiment was as follows: • 1. […] [formula] • 3.3 Calculation of IC50 value of compound and drawing dose-effect curve of compound • IC50 values were calculated using GraphPad 6.0 by applying a non-linear regression curve (dose-effect relationship-variable slope) of the logarithm of the compound concentration versus the inhibition rate. […]
measured-metric: IC50

{"compound": "CN1CCN(c2ccc(Nc3nc(N[C@H]4CC[C@@H](CO)CC4)c4c(C(=O)c5ccc(F)cc5)c[nH]c4n3)cc2F)CC1 [Example 103]", "measured-metric": "IC50", "reading": "10 to 100 nM"}
{"compound": "O=C(c1ccc(F)cc1)c1c[nH]c2nc(Nc3ccc(N4CCOCC4)c(F)c3)nc(N[C@H]3CC[C@H](CO)CC3)c12 [Example 82]", "measured-metric": "IC50", "reading": "100 to 600 nM"}
{"compound": "CN1CCN(c2ccc(Nc3nc(N[C@@H]4CCN(S(C)(=O)=O)C4)c4c(C(=O)c5ccc(F)cc5)c[nH]c4n3)cc2)CC1 [Example 49]", "measured-metric": "IC50", "reading": "100 to 600 nM"}
{"compound": "CN1CCN(c2ccc(Nc3nc(N[C@H]4CC[C@@H](CO)CC4)c4c(C(=O)c5ccc(F)cc5)c[nH]c4n3)cc2)CC1 [Example 60]", "measured-metric": "IC50", "reading": "< 10 nM"}
{"compound": "COc1nn(C)cc1Nc1nc(N[C@H]2CC[C@H](CO)CC2)c2c(C(=O)c3ccc(F)cc3)c[nH]c2n1 [Example 112]", "measured-metric": "IC50", "reading": "100 to 600 nM"}
{"compound": "Cn1cc(Nc2nc(N[C@H]3CC[C@@H](CO)CC3)c3c(C(=O)c4ccc(F)cc4)c[nH]c3n2)cn1 [Example 114]", "measured-metric": "IC50", "reading": "< 10 nM"}
{"compound": "CCN1CCN(c2ccc(Nc3nc(N[C@H]4CC[C@@H](CO)CC4)c4c(C(=O)c5ccc(F)cc5)c[nH]c4n3)cc2)CC1 [Example 104]", "measured-metric": "IC50", "reading": "< 10 nM"}
{"compound": "CN1CCC(n2cc(Nc3nc(N[C@H]4CC[C@@H](CO)CC4)c4c(C(=O)c5ccc(F)cc5)c[nH]c4n3)cn2)CC1 [Example 115]", "measured-metric": "IC50", "reading": "< 10 nM"}
{"compound": "CN1CCN(c2ccc(Nc3nc(N[C@@H]4CCCOC4)c4c(C(=O)c5ccc(F)cc5)c[nH]c4n3)cc2)CC1 [Example 58]", "measured-metric": "IC50", "reading": "100 to 600 nM"}
{"compound": "CN1CCN(c2ccc(Nc3nc(NC4CCN(S(C)(=O)=O)CC4)c4c(C(=O)c5ccc(F)cc5)c[nH]c4n3)cc2)CC1 [Example 64]", "measured-metric": "IC50", "reading": "100 to 600 nM"}
{"compound": "O=C(c1ccc(F)cc1)c1c[nH]c2nc(Nc3ccc(N4CCOCC4)cc3)nc(N[C@@H]3CC[C@@H](CO)OC3)c12 [Example 94]", "measured-metric": "IC50", "reading": "10 to 100 nM"}
{"compound": "CN1CCN(c2ccc(Nc3nc(OC4CCOCC4)c4c(C(=O)c5ccc(F)cc5)c[nH]c4n3)cc2)CC1 [Example 84]", "measured-metric": "IC50", "reading": "100 to 600 nM"}
{"compound": "CN1CCN(c2ccc(Nc3nc(N[C@H]4CC[C@@H](O)CC4)c4c(C(=O)c5ccc(F)cc5)c[nH]c4n3)cc2)CC1 [Example 55]", "measured-metric": "IC50", "reading": "10 to 100 nM"}
{"compound": "CN1CCN(c2ccc(Nc3nc(N[C@@H]4CCOC4)c4c(C(=O)c5ccc(F)cc5)c[nH]c4n3)cc2)CC1 [Example 68]", "measured-metric": "IC50", "reading": "100 to 600 nM"}

###

Recorded IC50 for the following compounds
- target-desc: EGFR-Del19/T790M/C797S kinase (Homo sapiens, UniProt P00533, C797S/T790M, form not given)
- experiment: In-vitro enzyme experiment 2 (HTRF kinase assay), EGFR Del19 T790M C797S
- Assay type: biochemical
- experimental-conditions: read-out: enzyme inhibition IC50 (nM) EGFR-Del19/T790M/C797S

{"chemical-smiles": "CN1CCN(c2ccc(Nc3nc(NC4CCCCC4)c4c(C(=O)c5ccc(F)cc5)c[nH]c4n3)cc2)CC1", "target-desc": "EGFR-Del19/T790M/C797S kinase (Homo sapiens, UniProt P00533, C797S/T790M, form not given)", "IC50": "100 to 600 nM"}
{"chemical-smiles": "CN1CCN(c2ccc(Nc3nc(NC4CCN(S(=O)(=O)C5CC5)CC4)c4c(C(=O)c5ccc(F)cc5)c[nH]c4n3)cc2)CC1", "target-desc": "EGFR-Del19/T790M/C797S kinase (Homo sapiens, UniProt P00533, C797S/T790M, form not given)", "IC50": "100 to 600 nM"}
{"chemical-smiles": "CN1CCN(c2ccc(Nc3nc(N[C@@H]4CCCN(S(C)(=O)=O)C4)c4c(C(=O)c5ccc(F)cc5)c[nH]c4n3)cc2)CC1", "target-desc": "EGFR-Del19/T790M/C797S kinase (Homo sapiens, UniProt P00533, C797S/T790M, form not given)", "IC50": "100 to 600 nM"}
{"chemical-smiles": "CN1CCN(c2ccc(Nc3nc(NC4(CO)CC4)c4c(C(=O)c5ccc(F)cc5)c[nH]c4n3)cc2)CC1", "target-desc": "EGFR-Del19/T790M/C797S kinase (Homo sapiens, UniProt P00533, C797S/T790M, form not given)", "IC50": "10 to 100 nM"}
{"chemical-smiles": "CN1CCN(c2ccc(Nc3nc(N[C@H]4C=C[C@@H](CO)C4)c4c(C(=O)c5ccc(F)cc5)c[nH]c4n3)cc2)CC1", "target-desc": "EGFR-Del19/T790M/C797S kinase (Homo sapiens, UniProt P00533, C797S/T790M, form not given)", "IC50": "10 to 100 nM"}
{"chemical-smiles": "CN1CCN(c2ccc(Nc3nc(NC4CC5(COC5)C4)c4c(C(=O)c5ccc(F)cc5)c[nH]c4n3)cc2)CC1", "target-desc": "EGFR-Del19/T790M/C797S kinase (Homo sapiens, UniProt P00533, C797S/T790M, form not given)", "IC50": "10 to 100 nM"}
{"chemical-smiles": "CN1CCN(c2ccc(Nc3nc(N[C@H]4CC[C@@H](N)CC4)c4c(C(=O)c5ccc(F)cc5)c[nH]c4n3)cc2)CC1", "target-desc": "EGFR-Del19/T790M/C797S kinase (Homo sapiens, UniProt P00533, C797S/T790M, form not given)", "IC50": "< 10 nM"}
